From: patent US20140249135A1

target: KDR kinase (Homo sapiens)
protocol.notes: KDR AlphaScreen assay
protocol.conditions: KDR IC50 (μM)
property: IC50

{"compound": "NC(=O)c1cccc(-c2cnc(N)c(C(=O)Nc3cnccc3N3CCNCC3)n2)c1 [Example 361]", "recorded.value": "< 1 µM"}
{"compound": "Nc1nc(N)c(C(=O)Nc2cnccc2N2CCCCC2)nc1Cl [Example 121]", "recorded.value": "< 1 µM"}
{"compound": "Nc1ccc(-c2ccc(N)c(C(=O)Nc3cnccc3N3CCC[C@H](N)C3)n2)cn1 [Example 418]", "recorded.value": "> 25 µM"}
{"compound": "Nc1ccc(-c2ccccc2)nc1C(=O)Nc1cnccc1N1CCC[C@H](N)C1 [Example 524]", "recorded.value": "1 to 10 µM"}
{"compound": "Nc1ncc(-c2ccccc2)nc1C(=O)Nc1cc(C(=O)c2ccccc2)ccc1N1CCC(N)CC1 [Example 436]", "recorded.value": "1 to 10 µM"}
{"compound": "COc1ccc(-c2cnc(N)c(C(=O)Nc3cnccc3N3CCNCC3)n2)cc1 [Example 362]", "recorded.value": "< 1 µM"}

Item under review: Nc1cc(-c2ccccc2)cnc1C(=O)Nc1cnccc1N1CCC[C@H](N)C1 [Example 264] . Reported IC50? < 1 µM

Entry to check: COc1ccc(N2CCC(N)CC2)c(NC(=O)c2nccnc2N)c1 [Example 222] > 25 µM

Moving on to the next compound: COc1cncc(-c2cnc(N)c(C(=O)Nc3cnccc3N3CCC(N)CC3)n2)n1 [Example 366] < 1 µM

Another compound to check: Nc1nc(N)c(-c2ccccc2F)nc1C(=O)Nc1cnccc1N1CCCC(N)C1 (centres unmarked) [Example 343] 1 to 10 µM

Next entry: CC(=O)Nc1cccc(-c2ncc(N)c(C(=O)Nc3cnccc3N3CCC[C@H](N)C3)n2)c1 [Example 544] 10 to 25 µM

Same for Nc1ncc(-c2ccccc2F)nc1C(=O)Nc1cc(C(=O)c2ccccc2)ccc1N1CCNCC1 [Example 438] 1 to 10 µM

Nc1nccnc1C(=O)Nc1cc(Cl)ccc1N1CCNCC1 [Example 213] , same question. > 25 µM

Continue with Nc1ncc(-c2ccccc2F)nc1C(=O)Nc1cnccc1N1CCNCC1 [Example 363] < 1 µM

###

Listed here: items and their measured IC50.
target: Pim2 kinase (Homo sapiens, UniProt Q9P1W9)
Sequence (Q9P1W9 whole entry): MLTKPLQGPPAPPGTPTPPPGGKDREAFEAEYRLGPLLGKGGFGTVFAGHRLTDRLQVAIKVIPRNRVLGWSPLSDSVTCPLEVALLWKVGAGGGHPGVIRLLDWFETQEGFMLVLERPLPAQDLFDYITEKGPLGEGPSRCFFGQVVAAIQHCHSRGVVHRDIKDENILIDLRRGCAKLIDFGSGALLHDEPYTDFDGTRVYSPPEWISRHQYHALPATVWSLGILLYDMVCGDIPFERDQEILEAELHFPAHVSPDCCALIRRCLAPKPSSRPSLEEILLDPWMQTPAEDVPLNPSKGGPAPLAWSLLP
protocol.notes: Pim2 ATP depletion assay;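 further: Luciferase-based luminescent readout of ATP remaining after PIM2 phosphorylates a BAD peptide, final 5 nM enzyme, 4 µM ATP, 10 µM peptide, 2.5% DMSO, run to roughly half ATP consumption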
Type: biochemical
protocol.conditions: read-out: IC50 (μM) PIM2

{"smiles.representation": "Nc1nc(N)c(C(=O)Nc2ccncc2N2CCCCC2)nc1Cl", "IC50": "1 to 10 µM"}
{"smiles.representation": "Nc1cc(-c2ccncc2NC(=O)c2cccc(-c3ccccc3F)n2)nc(C(F)(F)F)n1", "IC50": "< 1 µM"}

Could you tell me which IC50 is on file for Nc1cc(F)c(-c2ccccc2)nc1C(=O)Nc1cnccc1N1CCC[C@H](N)C1 ? < 1 µM

Check CC(C)NC(=O)c1ccc(F)c(-c2ccc(N)c(C(=O)Nc3cnccc3N3C[C@@H](N)C[C@H](O)C3)n2)c1 too. < 1 µM

###

target: KDR kinase (Homo sapiens, UniProt P35968)
Sequence (P35968 20-1356): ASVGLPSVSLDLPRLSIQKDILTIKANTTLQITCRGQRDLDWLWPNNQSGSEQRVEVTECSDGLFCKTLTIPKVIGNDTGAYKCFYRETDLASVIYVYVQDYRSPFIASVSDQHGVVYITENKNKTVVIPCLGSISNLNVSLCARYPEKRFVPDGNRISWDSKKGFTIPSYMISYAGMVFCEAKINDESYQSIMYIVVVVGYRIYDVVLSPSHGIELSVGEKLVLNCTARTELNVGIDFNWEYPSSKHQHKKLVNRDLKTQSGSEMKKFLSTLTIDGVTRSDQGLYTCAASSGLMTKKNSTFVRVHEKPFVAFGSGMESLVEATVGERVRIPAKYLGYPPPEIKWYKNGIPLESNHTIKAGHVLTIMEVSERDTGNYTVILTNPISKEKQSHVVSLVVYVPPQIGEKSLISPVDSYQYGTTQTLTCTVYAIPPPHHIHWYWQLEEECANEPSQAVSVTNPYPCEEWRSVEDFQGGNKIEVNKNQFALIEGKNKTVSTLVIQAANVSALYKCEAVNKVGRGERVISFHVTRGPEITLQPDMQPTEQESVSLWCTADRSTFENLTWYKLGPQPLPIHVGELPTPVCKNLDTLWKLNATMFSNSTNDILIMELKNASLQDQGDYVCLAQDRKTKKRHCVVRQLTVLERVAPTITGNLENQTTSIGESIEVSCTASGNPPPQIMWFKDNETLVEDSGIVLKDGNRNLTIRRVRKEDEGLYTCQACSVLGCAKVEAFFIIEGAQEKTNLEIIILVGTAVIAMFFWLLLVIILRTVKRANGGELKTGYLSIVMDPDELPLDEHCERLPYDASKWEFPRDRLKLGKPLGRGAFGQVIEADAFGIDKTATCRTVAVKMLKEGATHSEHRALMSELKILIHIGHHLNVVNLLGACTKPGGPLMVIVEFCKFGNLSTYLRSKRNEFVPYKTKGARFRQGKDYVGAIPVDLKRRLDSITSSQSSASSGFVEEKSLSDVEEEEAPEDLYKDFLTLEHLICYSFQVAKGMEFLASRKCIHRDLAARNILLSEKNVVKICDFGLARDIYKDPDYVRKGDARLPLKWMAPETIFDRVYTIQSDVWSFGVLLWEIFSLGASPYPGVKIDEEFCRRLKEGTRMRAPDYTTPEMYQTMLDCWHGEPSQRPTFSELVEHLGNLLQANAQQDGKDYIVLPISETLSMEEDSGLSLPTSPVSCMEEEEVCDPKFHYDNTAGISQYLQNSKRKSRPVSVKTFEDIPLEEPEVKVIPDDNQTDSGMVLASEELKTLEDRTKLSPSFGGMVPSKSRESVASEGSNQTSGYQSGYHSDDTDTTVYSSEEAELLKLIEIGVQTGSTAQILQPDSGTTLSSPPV
protocol.notes: KDR AlphaScreen assay
protocol.conditions: KDR IC50 (μM)
Reported IC50 values for the following compounds.

Below are worked cases with known answers.
{"smiles.representation": "COc1ccc(-c2cnc(N)c(C(=O)Nc3ccccc3N3CCNCC3)n2)cc1", "IC50": "1 to 10 µM"}
{"smiles.representation": "Nc1nccnc1C(=O)Nc1cnccc1N1CCCNCC1", "IC50": "1 to 10 µM"}

Recorded IC50 of Cc1ccc(F)c(-c2ncc(N)c(C(=O)Nc3cnccc3N3CCC[C@H](N)C3)n2)c1 , please. 10 to 25 µM

What do you have for Nc1cccnc1C(=O)Nc1cnccc1N1CCC[C@H](N)C1 ? > 25 µM

Now this one: Nc1nccnc1C(=O)Nc1cnccc1Cl 1 to 10 µM
